Test system: CAKI-1 renal
Assay: NCI tumour cell line growth inhibition, 48 h
TEST READOUT: TGI (µM)
Please respond with the number in µM and leave the unit unwritten.

// assay CAKI-1 renal, entry CCC[Se]C(=O)c1ccc(C(=O)[Se]CCC)s1 , TGI value = 0.175

Summary: O=C(N/N=C/c1c[nH]c2ccccc12)Nc1ccc(F)c(Cl)c1 , CAKI-1 renal, TGI = 28

* * *

Test system: MDA-MB-468 breast
Assay: NCI tumour cell line growth inhibition, 48 h
Respond with Fulfilled for TGI values of 4 µM and above, Not fulfilled for values below.

QUERY: Please indicate if the recorded TGI for O=C1C(SCCO)=C(SCCO)C(=O)N1c1ccc(-c2ccccc2)cc1 meets or exceeds 4 µM.
RESULT: Not fulfilled

QUERY: Item CN(C)c1nc(NCCNS(=O)(=O)c2ccc(C3=Nc4c(N)nc(N)nc4NC(c4ccc(C(F)(F)F)cc4)C3)cc2)nc(Nc2ccc(F)cc2)n1 (stereo not given) with TGI of 4 µM or above?
RESULT: Fulfilled

QUERY: Given Cc1ccc(C(=O)NC2CCC2)cc1-c1ccc(C(=O)NCC2CC2)cc1 , state whether its TGI is at least 4 µM.
RESULT: Fulfilled

QUERY: Does the reported TGI for CCC[CH2][Sn]1([CH2]CCC)[O]C2C(CO)OC(n3ccc(N)nc3=O)C2[O]1 (stereo not given) fall at or above the 4 µM mark?
RESULT: Not fulfilled

QUERY: Quick check: does Nc1c(C(=O)c2cccc(C#CCO)c2)cnn1-c1ccc(F)cc1 have TGI greater than or equal to 4 µM?
RESULT: Fulfilled

QUERY: Does the reported TGI for COC(=O)c1cc2ccccc2c2c3c(ccc12)OCO3 fall at or above the 4 µM mark?
RESULT: Fulfilled

QUERY: TGI >= 4 µM for Cc1ccc(-c2nc3nc(-c4ccccc4)nc(N4CCNCC4)c3o2)cc1 ?
RESULT: Not fulfilled

QUERY: For this molecule, is measured TGI 4 µM or higher? COc1ccc(CC(=O)c2ccc(O)cc2O)cc1
RESULT: Fulfilled

QUERY: Entry O=[N+]([O-])c1ccc(N=Nc2ccc(O)c3ccccc23)cc1 : is its TGI no less than 4 µM?
RESULT: Fulfilled

QUERY: Form field: TGI at least 4 µM? Entry: Cc1cnc(CNC(=O)c2c(=O)c3ccc(N4CCCN(C)CC4)nc3n3c2sc2ccccc23)cn1
RESULT: Fulfilled

QUERY: Could you please find out whether Cc1nn(C)c(COc2ccc(N3CCN(S(=O)(=O)N(C)C)CC3)cc2)c1-c1cccc2c(CCCOc3cccc4ccccc34)c(C(=O)O)n(CCN3CCOCC3)c12 has TGI that meets 4 µM or exceeds it?
RESULT: Fulfilled

QUERY: Hi, just wondering whether C#CCNCCN1C(=O)c2ccc3c4c(ccc(c24)C1=O)C(=O)N(CCNCC#C)C3=O shows TGI of 4 µM or higher.
RESULT: Fulfilled

QUERY: # check: TGI of CCN(CC)c1ccc(/C=N/NC(=O)c2ccc(NS(C)(=O)=O)cc2)cc1 is greater than or equal to 4 µM
RESULT: Not fulfilled

QUERY: Is TGI at least 4 µM? Consider O1[As]2O[As]3O[As]1O[As](O2)O3
RESULT: Not fulfilled

QUERY: Answer whether TGI of CN(C)c1ccc(C(=NO)c2ccc(N(C)C)cc2)cc1 is greater than or equal to 4 µM.
RESULT: Fulfilled
